RESULT_TYPE: melting point

Past entries and their recorded results:
{"MOLECULE": "CC(=O)c1ccc2c(c1)CC(=O)N2CC(F)(F)F", "melting point": "170 to 171 °C"}
{"MOLECULE": "CCOC(=O)/C=C/c1cc(-n2cnnc2)cc(C(F)(F)F)c1N", "melting point": "225 to 227 °C"}
{"MOLECULE": "O=C1N(CC2CCCO2)c2c(Cl)cccc2C12COc1cc3c(cc12)CCO3 (centres undefined)", "melting point": "192 to 193 °C"}

Switching to the query record.
Which value of melting point has been reported for CCCN(CCC)C(=O)n1cnc(S(=O)(=O)C(C)C)n1 in the records?
61 °C

---

RESULT_TYPE: melting point

{"MOLECULE": "CCCCCCCCc1c(N)nc(-n2cncn2)nc1CC", "OBSERVED_MEASUREMENT": "90 to 91 °C"}
{"MOLECULE": "CCOC(=O)c1c(O)c(O)c(C(=O)OCC)n1Cc1ccccc1", "OBSERVED_MEASUREMENT": "144 to 145 °C"}
{"MOLECULE": "Brc1ccc(Cn2cnc3ccccc32)cc1", "OBSERVED_MEASUREMENT": "93 to 95 °C"}

Which value of melting point has been reported for CC(C)(C)C(=O)C=Cc1ccc2c(c1)OCO2 in the records?
94 to 96 °C

Which value of melting point has been reported for CCc1cccc(C)c1CNc1cc(OC)nc(NC)c1[N+](=O)[O-] in the records?
147 to 149 °C

Which value of melting point has been reported for O=C(O)CCc1oc(N2CCCCC2)nc1-c1ccc(Cl)cc1 in the records?
185 to 186 °C

Which value of melting point has been reported for COc1cc(Cl)c2c(=O)c(C(C)C)coc2c1 in the records?
177 to 179 °C

Which value of melting point has been reported for Cc1cc(N2CCN(CC(=O)c3ccccc3)C2=O)sc1C(=O)NCc1cccnc1 in the records?
174 to 176 °C

Which value of melting point has been reported for CC(=O)Nc1ccc2c(c1)CCC(CC#N)C2=O (stereo not given) in the records?
189 to 190 °C

Which value of melting point has been reported for O=c1[nH]c2c(n3ccnc13)C(NS(=O)(=O)c1ccccc1)c1ccccc1-2 (stereo not given) in the records?
216 °C

---

RESULT_TYPE: melting point

Past entries and their recorded results:
{"COMPOUND": "CCOC(=O)N[C@@H]1Cc2ccccc2[C@H]1Cl (relative stereo)", "melting point": "82 to 84 °C"}
{"COMPOUND": "N=C(Cc1ccccc1)Nc1ncccc1OCc1ccccc1Br", "melting point": "158 to 169 °C"}
{"COMPOUND": "COc1ccc(S(=O)(=O)N(Cc2ccccc2)C2(C(=O)NO)CCSCC2)cc1", "melting point": "179 to 181 °C"}
{"COMPOUND": "C[Si](C)(C)c1cccc(Br)c1C(=O)O", "melting point": "139 to 141 °C"}
{"COMPOUND": "O=c1cc(N2CCNCC2)oc2c1ccc1ccccc12", "melting point": "208 to 209 °C"}

Which value of melting point has been reported for COC(=O)CC1NC(=O)c2ccccc21 (centres undefined) in the records?
136 to 138 °C

Which value of melting point has been reported for OCCC#Cc1ccc2ccccc2n1 in the records?
89 to 91 °C

Which value of melting point has been reported for CCOC(=O)C1=C(C)NC(N)=C(C(=O)OC(C)C)C1c1ccccc1[N+](=O)[O-] (centres undefined) in the records?
139 °C

Which value of melting point has been reported for Nc1ncc(C#Cc2ccc(Cl)cc2)c(NCCO)n1 in the records?
197 to 200 °C

Which value of melting point has been reported for Cn1c(C(=O)NCCCO)c2ccc(Cl)cc2c1-c1ccccc1 in the records?
155 to 160 °C

---

Recorded melting point for the following compounds

Past entries and their recorded results:
{"COMPOUND": "COc1ccc(-c2oc3cc(NS(C)(=O)=O)c(Oc4ccccc4)cc3c(=O)c2O)cc1OC", "OBSERVED_MEASUREMENT": "222 to 224 °C"}
{"COMPOUND": "N#Cc1ccc(CN2CCC(=O)C(C(c3ccc(F)cc3)c3ccc(F)cc3)C2)cc1 (stereo not given)", "OBSERVED_MEASUREMENT": "118 to 120 °C"}
{"COMPOUND": "CC(O)(C(=O)O)c1ccc2c(c1)Cc1ccccc1-2 (stereo not given)", "OBSERVED_MEASUREMENT": "164 to 168 °C"}
{"COMPOUND": "CS(=O)(=O)c1ccc(C=CCN2CCc3nc(N)sc3CC2)cc1", "OBSERVED_MEASUREMENT": "157 to 161 °C"}
{"COMPOUND": "COc1cc(OC)cc(C(=O)N[C@H]2CCN(C)C[C@H]2c2ccccc2)c1 (relative stereo)", "OBSERVED_MEASUREMENT": "123 to 124 °C"}

Which value of melting point has been reported for CCOC(=O)c1cnc2c(c(C)nc3cc(C)nn32)c1N1CCN(C)CC1 in the records?
158 to 159 °C

Which value of melting point has been reported for c1ccc(NCC2Oc3ccccc3O2)cc1 in the records?
70 to 72 °C

Which value of melting point has been reported for CN1CCN(C2=Nc3ccccc3N(C)c3cscc32)CC1 in the records?
83 to 85 °C

Which value of melting point has been reported for CC(C)(C)OC(=O)Nc1ccccc1O in the records?
145 °C

Which value of melting point has been reported for COc1ccc(C2=NN(Cc3ccc(CC(=O)O)cc3)C(=O)[C@H]3CCCC[C@@H]23)cc1OC (relative stereo) in the records?
164 to 166 °C

---

Recorded melting point for the following compounds

Past entries and their recorded results:
{"COMPOUND": "CCCn1c(=O)c2[nH]c(/C=C/c3cccc(OC)c3OC)nc2n(CCC)c1=O", "melting point": "236 °C"}
{"COMPOUND": "O=[N+]([O-])c1ccc(-n2nnnc2Cl)cc1", "melting point": "96.5 °C"}
{"COMPOUND": "Cc1ccc(CCN2C(=O)COc3ccc(C=C4SC(=S)NC4=O)cc32)cc1", "melting point": "267 to 269 °C"}
{"COMPOUND": "Cc1noc(NS(=O)(=O)c2ccc(-c3ccccc3)cc2)c1C", "melting point": "154 to 155 °C"}
{"COMPOUND": "CC1(C)CC(=O)c2c(Sc3ncccn3)sc(-c3cc[nH]n3)c2C1", "melting point": "245 °C"}

Switching to the query record.
Which value of melting point has been reported for Fc1ccc2[nH]cc(C3=CCN(CC4COc5ccc6[nH]ccc6c5O4)CC3)c2c1 (stereo not drawn) in the records?
112 °C

---

Recorded melting point for the following compounds

Past entries and their recorded results:
{"COMPOUND": "CC(C)C(CCCCCCCC(=O)O)NCc1ccc(F)cc1 (stereo not drawn)", "RESULT_TYPE": "melting point", "OBSERVED_MEASUREMENT": "78 to 82 °C"}
{"COMPOUND": "CC(=O)SCC(=Cc1ccc(C(F)(F)F)cc1)C(=O)NCCC(=O)OCc1ccccc1", "RESULT_TYPE": "melting point", "OBSERVED_MEASUREMENT": "79 °C"}

Switching to the query record.
Which value of melting point has been reported for Nc1cccc2cc(C(=O)N3CCc4ccccc4C3)cnc12 in the records?
238 to 240 °C

---

RESULT_TYPE: melting point

{"COMPOUND": "Cc1ccccc1Nc1nc(NCc2ccccc2)nc2ccccc12", "melting point": "127 to 130 °C"}
{"COMPOUND": "COC(=O)c1sc2ccc(OC)cc2c1OC(C)C#N (stereo not given)", "melting point": "127 to 129 °C"}
{"COMPOUND": "COc1ccc(-c2nc(-c3ccc(OCCO)cc3O)nc(-c3ccc(OCCO)cc3OCCO)n2)cc1", "melting point": "172 °C"}

Which value of melting point has been reported for COc1ccc2c(c1)C(C(=O)N(Cc1ccc(N(C)C)cc1)c1ccc(C(C)C)cc1)CCO2 (stereo not given) in the records?
82 to 84 °C

Which value of melting point has been reported for CCCCc1nc(CC(=O)OC)c(Cl)n1Cc1ccc(NC(=O)c2ccccc2C(=O)O)cc1 in the records?
150 to 152 °C

Which value of melting point has been reported for CC(C)CCCC(C)C1CCC2C3CC=C4CCCCC4(C)C3CCC12C (stereo not given) in the records?
90 to 92 °C

Which value of melting point has been reported for Cc1nnc2n1-c1sc(Cl)cc1C(c1ccccc1[N+](=O)[O-])=NC2 in the records?
210 to 212 °C

Which value of melting point has been reported for COc1cccc(NC(=O)NCC(=O)N(CC(=O)N2CCCC(C)(C)C2)c2ccccc2)c1 in the records?
200 °C

Which value of melting point has been reported for COC(=O)/C(=C\C=C\c1sc2ccccc2c1C)OC in the records?
91 to 92 °C

Which value of melting point has been reported for Nc1nc2ccccc2c2c1ncn2Cc1ccccc1 in the records?
257 to 259 °C

Which value of melting point has been reported for C=Cc1ccc2nc(Cl)c(S(N)(=O)=O)n2n1 in the records?
229 to 233 °C

Which value of melting point has been reported for Cc1nn(CCBr)c(=O)c2ccccc12 in the records?
102 to 103 °C

Which value of melting point has been reported for CC(C)(C)OC(=O)NCCNC(=O)c1ncsc1-c1cccc(OCc2cccc(Cl)c2)c1 in the records?
116 to 117 °C

Which value of melting point has been reported for COc1ccc(-c2ncc(Cc3ccccc3)nc2-c2ccc(OC)cc2)cc1 in the records?
107 to 109 °C

Which value of melting point has been reported for CN1CCCCC1C(=O)NN=Cc1cc(Cl)cc(Cl)c1O (stereo not given) in the records?
107 to 110 °C

Which value of melting point has been reported for COCC(=O)N(C)c1cccc(OCc2ccccc2)c1[N+](=O)[O-] in the records?
111 to 112 °C

Which value of melting point has been reported for CN(C)C(=O)c1cc2c(OC[C@@H](O)CN3CCC(c4ccc5ccccc5c4)CC3)cccc2n1C in the records?
146 to 148 °C

Which value of melting point has been reported for COc1cc2cc(CO)c(CO)c(-c3cccc(-n4c(=O)ccc5ccccc54)n3)c2cc1OC in the records?
142 to 143 °C

Which value of melting point has been reported for COc1cc(-c2ccc(N(C)CCN(C)c3ccc(-c4cc(OC)c(N5CCCC5)c(OC)c4)nc3)cn2)cc(OC)c1N1CCCC1 in the records?
221 to 225 °C

Which value of melting point has been reported for CN1C(=O)C2(COc3cc4c(cc32)OCCO4)c2c(C(=O)NC3CCCCC3)cccc21 (stereo not given) in the records?
139 to 140 °C

Which value of melting point has been reported for CNC(=NC(=O)NC1CCCCC1)N(C)C in the records?
121 to 124 °C
